Quick reference: molar heat capacity at constant pressure of the listed items.
experiment: molar heat capacity at constant pressure; conditions: 301 K; 101.33 kPa; Liquid; DSC
Kindly answer with a numeric value in J/K/mol, unit omitted.

Some solved cases for reference:
Name the reported molar heat capacity at constant pressure value associated with the compound CCCCCCCCCC(=O)OCC [ethyl decanoate]
385.77

Name the reported molar heat capacity at constant pressure value associated with the compound CCCCCCCCCCC(=O)OC [methyl undecanoate]
386.6

Name the reported molar heat capacity at constant pressure value associated with the compound CCCCCCCC(=O)OCCCC [butyl octanoate]
398.24

Continuing:
Name the reported molar heat capacity at constant pressure value associated with the compound CCCCCCCCOC(=O)CCC [octyl butanoate]
385.77

Name the reported molar heat capacity at constant pressure value associated with the compound CCCCCCOC(=O)CCCCC [hexanoic acid, hexyl ester]
396.58

----------
assay: molar heat capacity at constant pressure; conditions: 289 K; 101.33 kPa; Liquid; DSC
Numbers after ± are expanded uncertainties.
reported endpoint: molar heat capacity at constant pressure

Name the reported molar heat capacity at constant pressure value associated with the molecule CCCCCCOC(=O)CCCCC
392.42 ± 42 J/K/mol

Name the reported molar heat capacity at constant pressure value associated with the molecule CCCCCCCCCCC(=O)OC [methyl undecanoate]
384.11 ± 41 J/K/mol

Name the reported molar heat capacity at constant pressure value associated with the molecule CCCCCCCCOC(=O)CCC [octyl butanoate]
379.12 ± 40 J/K/mol

Name the reported molar heat capacity at constant pressure value associated with the molecule CCCCCCCC(=O)OCCCC [butyl octanoate]
393.25 ± 42 J/K/mol

Alright, here's another molecule for you.
Name the reported molar heat capacity at constant pressure value associated with the molecule CCCCCCCCCC(=O)OCC [ethyl decanoate]
380.78 ± 41 J/K/mol

----------
conditions: Crystal; DSC
reported endpoint: Triple point temperature (K)
Kindly answer with a numeric value in K, unit omitted.

Name the reported Triple point temperature value associated with the molecule CCCCCCCCCC(=O)OCC [ethyl decanoate]
252

Name the reported Triple point temperature value associated with the molecule CCCCCCCC(=O)OCCCC [butyl octanoate]
230

Name the reported Triple point temperature value associated with the molecule CCCCCCOC(=O)CCCCC
217

Continuing:
Name the reported Triple point temperature value associated with the molecule CCCCCCCCCCC(=O)OC [methyl undecanoate]
262

Name the reported Triple point temperature value associated with the molecule CCCCCCCCOC(=O)CCC [octyl butanoate]
218

----------
Quick reference: molar heat capacity at constant pressure of the listed items.
assay: molar heat capacity at constant pressure; settings: 293 K; 101.33 kPa; Liquid; DSC
Kindly answer with a numeric value in J/K/mol, unit omitted.

Some solved cases for reference:
Name the reported molar heat capacity at constant pressure value associated with the compound CCCCCCCC(=O)OCCCC [butyl octanoate]
394.92

Name the reported molar heat capacity at constant pressure value associated with the compound CCCCCCCCCC(=O)OCC [ethyl decanoate]
381.61

Name the reported molar heat capacity at constant pressure value associated with the compound CCCCCCCCCCC(=O)OC [methyl undecanoate]
384.94

Name the reported molar heat capacity at constant pressure value associated with the compound CCCCCCOC(=O)CCCCC [hexanoic acid, hexyl ester]
393.25

Alright, here's another compound for you.
Name the reported molar heat capacity at constant pressure value associated with the compound CCCCCCCCOC(=O)CCC [octyl butanoate]
380.78

----------
experiment: molar heat capacity at constant pressure; settings: 298 K; 101.33 kPa; Liquid; DSC
reported endpoint: molar heat capacity at constant pressure (J/K/mol)
Kindly answer with a numeric value in J/K/mol, unit omitted.

Name the reported molar heat capacity at constant pressure value associated with the compound CCCCCCOC(=O)CCCCC
394.92

Name the reported molar heat capacity at constant pressure value associated with the compound CCCCCCCCOC(=O)CCC [octyl butanoate]
383.28

Name the reported molar heat capacity at constant pressure value associated with the compound CCCCCCCCCC(=O)OCC [ethyl decanoate]
383.28

Name the reported molar heat capacity at constant pressure value associated with the compound CCCCCCCC(=O)OCCCC [butyl octanoate]
397.41

Alright, here's another compound for you.
Name the reported molar heat capacity at constant pressure value associated with the compound CCCCCCCCCCC(=O)OC [methyl undecanoate]
389.1
